- System Name: TNKS1 (Homo sapiens, UniProt O95271)
- Method Description: TNKS1/PARP Biochemical Assay (TNKS1)
Measured Metric: IC50

>>> df
                                    molecule                           system_name  measured_metric  test_result
 0  Cc1cccc2c(=O)[nH]c(-c3ccc(CN4CCNCC4)c(F)c3)cc12  TNKS1 (Homo sapiens, UniProt O95271)             IC50      < 50 nM
 1  Cc1cccc2c(=O)[nH]c(-c3ccc(C(=O)N(CCO)CCO)cc3)cc12  TNKS1 (Homo sapiens, UniProt O95271)             IC50      < 20 nM
 2  CN1CCN(Cc2ccc(-c3cc4c(C#CCO)cccc4c(=O)[nH]3)cc2)CC1  TNKS1 (Homo sapiens, UniProt O95271)             IC50      < 50 nM
 3  Cc1cc(F)cc2c(=O)[nH]c(-c3ccc(C(=O)N4CCN(CCO)CC4)cc3)cc12  TNKS1 (Homo sapiens, UniProt O95271)             IC50      < 20 nM
 4  CC(=O)N1CCN(c2ccc(-c3cc4c(Cl)cccc4c(=O)[nH]3)cc2)CC1  TNKS1 (Homo sapiens, UniProt O95271)             IC50      < 50 nM
 5  O=c1[nH]c(-c2ccc(N3CCNCC3)cc2)cc2c(Cl)cccc12  TNKS1 (Homo sapiens, UniProt O95271)             IC50      < 20 nM
 6  CN(C)C1CCN(S(=O)(=O)c2ccc(-c3cc4c(Cl)cccc4c(=O)[nH]3)cc2)CC1  TNKS1 (Homo sapiens, UniProt O95271)             IC50     < 500 nM
 7  CN(C)Cc1ccc(-c2cc3c(Br)cccc3c(=O)[nH]2)cc1  TNKS1 (Homo sapiens, UniProt O95271)             IC50      < 50 nM
 8  Cc1cccc2c(=O)[nH]c(-c3ccc(CN4CCNCC4=O)cc3)cc12  TNKS1 (Homo sapiens, UniProt O95271)             IC50      < 50 nM
 9  Cc1cccc2c(=O)[nH]c(-c3ccc(S(=O)(=O)N(C)CCO)cc3)cc12  TNKS1 (Homo sapiens, UniProt O95271)             IC50      < 20 nM
10  Cc1cccc2c(=O)[nH]c(-c3ccc(C(=O)N4CC(O)C4)cc3)cc12  TNKS1 (Homo sapiens, UniProt O95271)             IC50      < 20 nM
11  Cc1cccc2c(=O)[nH]c(-c3ccc(Cn4ccnc4C)cc3)cc12  TNKS1 (Homo sapiens, UniProt O95271)             IC50      < 20 nM
12  Cc1cccc2c(=O)[nH]c(-c3ccc(C(C)N4CCN(C)CC4)cc3)cc12 (centres unmarked)  TNKS1 (Homo sapiens, UniProt O95271)             IC50      < 20 nM
13  Cc1cccc2c(=O)[nH]c(-c3ccc(CN4CCNCC4C)cc3)cc12 (single isomer, unassigned) [IQ-051-2]  TNKS1 (Homo sapiens, UniProt O95271)             IC50      < 50 nM
14  Cc1cccc2c(=O)[nH]c(-c3ccc(CN4CCC5(CCN(C)C5)C4)cc3)cc12 (centres unmarked)  TNKS1 (Homo sapiens, UniProt O95271)             IC50      < 20 nM
15  Cc1cccc2c(=O)[nH]c(-c3ccc(CN4CCN(C(=O)OC(C)(C)C)CC4C)cc3)cc12 (centres unmarked)  TNKS1 (Homo sapiens, UniProt O95271)             IC50     < 500 nM
16  Cc1cc(F)cc2c(=O)[nH]c(-c3ccc(C(C)C(=O)N4CC(O)C4)cc3)cc12 (centres unmarked)  TNKS1 (Homo sapiens, UniProt O95271)             IC50      < 50 nM
17  Cc1cccc2c(=O)[nH]c(-c3ccc(CN4CCN(C(=O)NC(C)(C)C)CC4)cc3)cc12  TNKS1 (Homo sapiens, UniProt O95271)             IC50      < 50 nM
18  Cc1cccc2c(=O)[nH]c(-c3ccc(CC(=O)N4CCN(C)CC4)cc3)cc12  TNKS1 (Homo sapiens, UniProt O95271)             IC50      < 20 nM
19  Cc1cccc2c(=O)[nH]c(-c3ccc(N4CCN(C(=O)OC(C)(C)C)CC4)cc3)cc12  TNKS1 (Homo sapiens, UniProt O95271)             IC50      < 50 nM
20  Cc1cccc2c(=O)[nH]c(-c3ccc(CN4CCN(C)CC4)nc3)cc12.O=CO  TNKS1 (Homo sapiens, UniProt O95271)             IC50      < 50 nM
21  Cc1cccc2c(=O)[nH]c(-c3ccc(CN4CC(C)NC(C)C4)cc3)cc12 (centres unmarked)  TNKS1 (Homo sapiens, UniProt O95271)             IC50     < 500 nM
22  Cc1cccc2c(=O)[nH]c(-c3ccc(CN4CCCNCC4)cc3)cc12  TNKS1 (Homo sapiens, UniProt O95271)             IC50      < 20 nM
23    CNCc1ccc(-c2cc3c(C)cccc3c(=O)[nH]2)cc1  TNKS1 (Homo sapiens, UniProt O95271)             IC50      < 20 nM
24  Cc1cccc2c(=O)[nH]c(-c3ccc(NC(CO)CO)nc3)cc12  TNKS1 (Homo sapiens, UniProt O95271)             IC50      < 20 nM
25  CN(C)CCOc1ccc(-c2cc3c(C#CCCO)cccc3c(=O)[nH]2)cc1  TNKS1 (Homo sapiens, UniProt O95271)             IC50     < 500 nM
26  CN(C)CCOc1ccc(-c2cc3c(F)cccc3c(=O)[nH]2)cc1  TNKS1 (Homo sapiens, UniProt O95271)             IC50      < 50 nM
27  CN1CCN(c2ccc(-c3cc4c(Cl)cccc4c(=O)[nH]3)c[n+]2[O-])CC1  TNKS1 (Homo sapiens, UniProt O95271)             IC50     < 500 nM
28  Cc1cccc2c(=O)[nH]c(-c3ccc(CN4CCN(C)C(=O)C4)cc3)cc12  TNKS1 (Homo sapiens, UniProt O95271)             IC50      < 20 nM
29  Cc1cc(F)cc2c(=O)[nH]c(-c3ccc(CN4CC(O)C4)cc3)cc12  TNKS1 (Homo sapiens, UniProt O95271)             IC50      < 20 nM
30  O=c1[nH]c(-c2cnc(N3CCNCC3)c(F)c2)cc2c(Cl)cccc12  TNKS1 (Homo sapiens, UniProt O95271)             IC50     < 500 nM
31  Cc1cccc2c(=O)[nH]c(-c3ccc(CN4CCN(C(=O)OC(C)(C)C)C(C)C4)cc3)cc12 (centres unmarked)  TNKS1 (Homo sapiens, UniProt O95271)             IC50     < 500 nM
32  Cc1cc(F)cc2c(=O)[nH]c(-c3ccc(C(C)(C)N4CC(O)C4)cc3)cc12  TNKS1 (Homo sapiens, UniProt O95271)             IC50      < 50 nM
33  Cc1cccc2c(=O)[nH]c(-c3ccc(S(=O)(=O)N4CCN(C(=O)OC(C)(C)C)CC4)cc3)cc12  TNKS1 (Homo sapiens, UniProt O95271)             IC50     < 500 nM
34  CC(C)(C)OC(=O)N1CCN(Cc2ccc(-c3cc4c(Cl)cccc4c(=O)[nH]3)cc2)CC1  TNKS1 (Homo sapiens, UniProt O95271)             IC50     < 500 nM

====

- System Name: TNKS1 (Homo sapiens)
- Method Description: TNKS1/PARP Biochemical Assay (TNKS1)
Measured Metric: IC50

In [3]: df
Out[3]:
                                    compound           system_name  measured_metric  test_result
 0  Cc1cccc2c(=O)[nH]c(-c3ccc(CN4CCNC(C)C4)cc3)cc12 (centres unmarked) [IQ-084-3]  TNKS1 (Homo sapiens)             IC50      < 50 nM
 1  Cc1cccc2c(=O)[nH]c(-c3ccc(CN4CCCN(C)CC4)cc3)cc12  TNKS1 (Homo sapiens)             IC50      < 50 nM
 2  Cc1cccc2c(=O)[nH]c(-c3ccc(C(C)(C)N4CCNCC4)cc3)cc12  TNKS1 (Homo sapiens)             IC50     < 500 nM
 3  Cc1cccc2c(=O)[nH]c(-c3ccc(C(=O)N(C)CC4CCNCC4)cc3)cc12  TNKS1 (Homo sapiens)             IC50      < 20 nM
 4  Cc1cccc2c(=O)[nH]c(-c3ccc(N4CCN(C5CC5)CC4)nc3)cc12  TNKS1 (Homo sapiens)             IC50      < 20 nM
 5  Cc1cccc2c(=O)[nH]c(-c3ccc(C(=O)N4CCOCC4)cc3F)cc12  TNKS1 (Homo sapiens)             IC50     < 500 nM
 6  Cc1cccc2c(=O)[nH]c(-c3ccc(S(=O)(=O)N(C)CC4CCN(C(=O)OC(C)(C)C)CC4)cc3)cc12  TNKS1 (Homo sapiens)             IC50     < 500 nM
 7  Cc1cc(F)cc2c(=O)[nH]c(-c3ccc(C(=O)N(C)CC4(C)CCN(C)C4)cc3)cc12 (centres unmarked)  TNKS1 (Homo sapiens)             IC50      < 20 nM
 8  Cc1cccc2c(=O)[nH]c(-c3ccc(CN4CCCN(C(=O)OC(C)(C)C)CC4)cc3)cc12  TNKS1 (Homo sapiens)             IC50     < 500 nM
 9  Cc1cc(F)cc2c(=O)[nH]c(-c3ccc(C(=O)N(C)C4CCN(C)C4)cc3)cc12 (single isomer, unassigned) [IQ-207-1]  TNKS1 (Homo sapiens)             IC50      < 50 nM
10  CC(C)(C)OC(=O)N1CCN(c2ccc(-c3cc4c(Cl)cccc4c(=O)[nH]3)cc2)CC1  TNKS1 (Homo sapiens)             IC50     < 500 nM
11  CN1CCN(Cc2ccc(-c3cc4c(C5CC5)cccc4c(=O)[nH]3)cc2)CC1  TNKS1 (Homo sapiens)             IC50     < 500 nM
12  CN(C)C1CCN(C(=O)c2ccc(-c3cc4c(Cl)cccc4c(=O)[nH]3)cc2)CC1  TNKS1 (Homo sapiens)             IC50     < 500 nM
13  C#Cc1cccc2c(=O)[nH]c(-c3ccc(CN4CCNCC4)cc3)cc12  TNKS1 (Homo sapiens)             IC50     < 500 nM
14  Cc1cccc2c(=O)[nH]c(-c3ccc(CN4CCCC4)c(F)c3)cc12  TNKS1 (Homo sapiens)             IC50     < 500 nM
15  Cc1cccc2c(=O)[nH]c(-c3ccc(CN4CCC(O)CC4)cc3)cc12  TNKS1 (Homo sapiens)             IC50      < 50 nM
16  Cc1cccc2c(=O)[nH]c(-c3ccc(C(=O)N(C4CC4)C4CCN(C)CC4)cc3)cc12  TNKS1 (Homo sapiens)             IC50      < 50 nM

Cited source for all entries: patent US9193689B2
